- TEST_NAME: photoluminescence quantum yield (fraction); solvent given as SMILES
- APPLIED_CONDITIONS: in CCCCO
Kindly apply the following: criterion met if photoluminescence quantum yield is less than 0.09, criterion not met in every other case.

CCN(CC)c1ccc2ccc(=O)oc2c1 ... criterion not met
CN(C)c1ccc(/C=C/C(=O)O)cc1 ... criterion met

Q: Quick check: photoluminescence quantum yield of N#Cc1ccc(C[C@H](N)C(=O)O)cc1 under 0.09?
Result: criterion met

Q: Item CN(C)c1ccc(/C=C/C=N/N=C/c2ccc3ccc4cccc5ccc2c3c45)cc1 : photoluminescence quantum yield beneath 0.09, strictly?
Result: criterion met

Q: Below 0.09 on photoluminescence quantum yield? Entry COC(=O)C(Cc1ccc2oc(-c3ccc4c(c3)c3ccccc3n4-c3ccccc3)nc2c1)NC(=O)OC(C)(C)C (stereo unspecified)
Result: criterion not met

###

- TEST_NAME: photoluminescence quantum yield (fraction); solvent given as SMILES
- APPLIED_CONDITIONS: in CO
Quick rule for you: photoluminescence quantum yield at 0.1 or higher means true (1), lower means false (0).

Answered cases to consult:
NC(=O)CC[C@H](/[NH+]=C\C=C1\C=C(C(=O)O)N[C@H](C(=O)O)C1)C(=O)O ... false (0)
Cc1ccc(C2=C3C=C(I)C=[N+]3[B-](F)(F)n3cc(I)cc32)cc1 ... false (0)
C[C@]12C(=O)NC(=O)N([C@H]3CC(O)[C@@H](CO)O3)[C@H]1[C@H]1Oc3cc4oc(=O)ccc4cc3[C@H]12 (stereo not given in full) ... false (0)

Q: Test whether the compound COC(=O)/C=C/c1ccc2ccc3cccc4ccc1c2c34 records photoluminescence quantum yield of 0.1 or higher.
Result: true (1)

Q: Kindly determine if photoluminescence quantum yield recorded for COC(=O)[C@H](Cc1ccc2oc3c(c2c1)=CC1=C(c2ccc(OC)cc2)c2cc4c5cc(C[C@H](NC(=O)OC(C)(C)C)C(=O)OC)ccc5oc4n2[B-](F)(F)[N+]=31)NC(=O)OC(C)(C)C is above or exactly 0.1.
Result: true (1)

Q: Reported photoluminescence quantum yield reaches at least 0.1 for CN(C)c1ccc2c(c1)COc1c-2oc2ccccc2c1=O ?
Result: true (1)

###

- TEST_NAME: photoluminescence quantum yield (fraction); solvent given as SMILES
- APPLIED_CONDITIONS: in Cc1ccccc1
ASSAY_METRIC: photoluminescence quantum yield

Q: # return recorded photoluminescence quantum yield for entry CC(C)(C)c1ccc(-c2nnc(-c3c(-n4c5ccccc5c5ccccc54)c(-n4c5ccccc5c5ccccc54)c(-n4c5ccccc5c5ccccc54)c(-n4c5ccccc5c5ccccc54)c3-n3c4ccccc4c4ccccc43)o2)cc1
Result: 0.13

Q: Give the measured photoluminescence quantum yield for CCCCCCCCCCCCn1cccc1/C=C/c1cc(OCCCC)c(/C=C/c2cccn2CCCCCCCCCCCC)cc1OCCCC
Result: 0.4

Q: Specify reported photoluminescence quantum yield for the molecule shown: Cc1cc(C)c(B(c2ccccc2N(c2ccccc2)c2ccccc2)c2c(C)cc(C)cc2C)c(C)c1
Result: 0.73

Q: For CCCCCCCCC1(CCCCCCCC)c2cc(-c3ccc(C(F)(F)F)cc3)ccc2-c2ccc(N(c3ccc(-n4c5ccccc5c5ccccc54)cc3)c3ccc4c(c3)C(CCCCCCCC)(CCCCCCCC)c3cc(-c5ccc(C(F)(F)F)cc5)ccc3-4)cc21 , write its photoluminescence quantum yield.
Result: 0.67

Q: Quote photoluminescence quantum yield reported for c1ccc(-c2nnc(-c3ccc(N4c5ccccc5N(c5ccccc5)c5ccccc54)cc3)o2)cc1 please.
Result: 0.12

Q: Retrieve photoluminescence quantum yield measured for C(#Cc1cc2ccc3cc(C#Cc4ccccc4)cc4ccc(c1)c2c34)c1ccccc1 and print it.
Result: 0.29

Q: Identify measured photoluminescence quantum yield corresponding to COc1ccc2c(c1)c1ccccc1n2-c1nc2ccccc2nc1-n1c2ccccc2c2cc(OC)ccc21
Result: 0.13
